Would you mind telling me the reported inhibition of growth at 200 ppm of each entry?
# System: Fusarium culmorum
# PROTOCOL SUMMARY: microbe, parasite or virus in culture
# Assay type: cell-based
# MEASUREMENT CONTEXT: read-out: control of Fusarium culmorum

Consider the worked cases shown below.
- MOLECULE: "CC(Cc1ccccc1)(CC1(F)CC1)NC(=O)c1cnc2c(F)cccc2c1 (stereo not shown)"
  inhibition of growth at 200 ppm: "≥ 80%"
- MOLECULE: "C[C@@](Cc1cccc(F)c1)(CC(F)(F)F)NC(=O)c1cnc2c(F)cccc2c1"
  inhibition of growth at 200 ppm: "≥ 80%"
- MOLECULE: "C=C(Cl)CC(C)(Cc1ccccc1)NC(=O)c1cnc2c(F)cccc2c1 (stereo not shown)"
  inhibition of growth at 200 ppm: "≥ 80%"

Hi, could you look up inhibition of growth at 200 ppm for each item in my list?
1. C[C@@](Cc1ccccc1)(CC(F)(F)F)NC(=O)c1cnc2ccccc2c1
2. CC1(C[C@](C)(Cc2ccccc2)NC(=O)c2cnc3c(F)cccc3c2)CC1
3. C[C@](Cc1cccc(F)c1)(CC(F)(F)F)NC(=O)c1cnc2c(F)cccc2c1

≥ 80%
≥ 80%
≥ 80%

Hi, could you look up inhibition of growth at 200 ppm for each item in my list?
1. CC(Cc1ccccc1)(CC(F)(F)F)NC(=O)c1cnc2ccccc2c1 (stereo not shown)
2. C[C@](Cc1ccccc1)(CC1(F)CC1)NC(=O)c1cnc2c(F)cccc2c1
3. CC(C)C[C@](C)(Cc1cccc(F)c1)NC(=O)c1cnc2c(F)cccc2c1
4. CC(C)C[C@@](C)(Cc1cccc(F)c1)NC(=O)c1cnc2c(F)cccc2c1
5. CC1(C[C@@](C)(Cc2ccccc2)NC(=O)c2cnc3c(F)cccc3c2)CC1
6. C[C@@](Cc1ccccc1)(CC1(F)CC1)NC(=O)c1cnc2c(F)cccc2c1
7. C[C@](Cc1ccccc1)(CC(F)(F)F)NC(=O)c1cnc2ccccc2c1

≥ 80%
≥ 80%
≥ 80%
≥ 80%
≥ 80%
≥ 80%
≥ 80%

Taken from patent US11234437B2.
